- experimental_system: ACVR1 (Homo sapiens)
- Sequence (Q04771 21-509): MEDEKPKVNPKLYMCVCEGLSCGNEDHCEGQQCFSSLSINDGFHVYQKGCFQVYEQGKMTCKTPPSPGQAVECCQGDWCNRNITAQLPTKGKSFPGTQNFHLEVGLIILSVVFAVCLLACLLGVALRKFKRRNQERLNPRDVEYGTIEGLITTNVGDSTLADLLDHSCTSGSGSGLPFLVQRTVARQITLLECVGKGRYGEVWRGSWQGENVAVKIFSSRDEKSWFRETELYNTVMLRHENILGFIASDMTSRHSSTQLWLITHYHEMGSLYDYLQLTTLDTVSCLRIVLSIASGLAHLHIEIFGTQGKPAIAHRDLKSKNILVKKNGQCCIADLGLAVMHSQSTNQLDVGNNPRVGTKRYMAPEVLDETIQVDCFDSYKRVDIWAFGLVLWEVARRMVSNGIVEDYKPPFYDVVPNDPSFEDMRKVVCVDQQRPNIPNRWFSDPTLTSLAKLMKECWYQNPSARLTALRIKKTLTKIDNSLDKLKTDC
- assay_name: KINOMEscan competition binding
- condition_label: read-out: %Inh ACVR1
Please mark yes (1) if the recorded inhibition at 1 µM is equal to or greater than 10%, and no (0) if it falls below.

Solved entries:
COc1cccc(OC)c1C(=O)Nc1cccc(-c2nn3ccccc3c2-c2ccnc(Nc3cccc(F)c3)n2)c1 [UNC10225310A] :: yes (1)
O=c1cc(N2CCOCC2)nc2n(Cc3cccc(Cl)c3Cl)c(C3CC3)nn12 [UNC10225469A] :: no (0)
CS(=O)(=O)Cc1ccc(Nc2nccc(-c3c(-c4cccc(NC(=O)C5CCCCC5)c4)nn4ncccc34)n2)cc1 [UNC10225159A] :: yes (1)

State whether the measured inhibition at 1 µM reaches 10%, counting equality as reaching it, for Cn1cc(-c2cnc(N)c3c(-c4ccc5c(c4)CCN5C(=O)Cc4ccccc4)csc23)cn1 [UNC10225012A]
no (0)

====

- experimental_system: CDKL5 (Homo sapiens)
- Sequence (O76039 whole entry): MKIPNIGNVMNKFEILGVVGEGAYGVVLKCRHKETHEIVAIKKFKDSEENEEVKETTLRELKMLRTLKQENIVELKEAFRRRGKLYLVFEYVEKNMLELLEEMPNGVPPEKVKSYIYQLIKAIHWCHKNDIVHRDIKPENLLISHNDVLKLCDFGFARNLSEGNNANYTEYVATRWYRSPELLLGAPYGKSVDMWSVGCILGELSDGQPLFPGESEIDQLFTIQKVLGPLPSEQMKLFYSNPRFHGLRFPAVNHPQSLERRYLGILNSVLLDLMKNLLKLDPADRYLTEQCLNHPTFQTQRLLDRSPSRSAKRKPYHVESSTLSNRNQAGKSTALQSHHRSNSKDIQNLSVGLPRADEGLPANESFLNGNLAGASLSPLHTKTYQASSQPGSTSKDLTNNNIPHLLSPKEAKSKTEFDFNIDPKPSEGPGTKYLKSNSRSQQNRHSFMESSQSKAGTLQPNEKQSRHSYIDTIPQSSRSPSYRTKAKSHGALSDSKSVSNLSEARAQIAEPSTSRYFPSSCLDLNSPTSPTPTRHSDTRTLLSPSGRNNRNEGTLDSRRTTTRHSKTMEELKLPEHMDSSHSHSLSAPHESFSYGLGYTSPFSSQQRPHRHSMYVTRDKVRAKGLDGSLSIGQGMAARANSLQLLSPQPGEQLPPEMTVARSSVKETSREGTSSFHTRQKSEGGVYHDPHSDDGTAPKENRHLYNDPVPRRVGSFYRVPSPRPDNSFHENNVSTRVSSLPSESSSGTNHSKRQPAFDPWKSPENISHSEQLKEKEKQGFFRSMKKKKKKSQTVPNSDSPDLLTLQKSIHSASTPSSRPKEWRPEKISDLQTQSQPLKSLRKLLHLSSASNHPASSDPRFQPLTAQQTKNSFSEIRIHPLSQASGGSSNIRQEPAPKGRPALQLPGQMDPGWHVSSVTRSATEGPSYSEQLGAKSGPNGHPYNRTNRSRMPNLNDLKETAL
- assay_name: KINOMEscan competition binding
- condition_label: read-out: %Inh CDKL5
observation_type: inhibition at 1 µM (%)
Note: unit % is implicit; provide only the numeric part.

Worked examples, 4 molecules total:
O=c1cc(N2CCOCC2)nc2n(Cc3cccc(Cl)c3Cl)c(C3CC3)nn12 [UNC10225469A] :: 0
COc1cccc(OC)c1C(=O)Nc1cccc(-c2nn3ccccc3c2-c2ccnc(Nc3cccc(F)c3)n2)c1 [UNC10225310A] :: 0
CS(=O)(=O)Cc1ccc(Nc2nccc(-c3c(-c4cccc(NC(=O)C5CCCCC5)c4)nn4ncccc34)n2)cc1 [UNC10225159A] :: 33
Cn1cc(-c2cnc(N)c3c(-c4ccc5c(c4)CCN5C(=O)Cc4ccccc4)csc23)cn1 [UNC10225012A] :: 0

# inhibition at 1 µM lookup, item Cc1ccc(NC(=O)Nc2cccc(C(F)(F)F)c2)cc1 [UNC10225187A]
0

====

- experimental_system: FER (Homo sapiens)
- Sequence (P16591 whole entry): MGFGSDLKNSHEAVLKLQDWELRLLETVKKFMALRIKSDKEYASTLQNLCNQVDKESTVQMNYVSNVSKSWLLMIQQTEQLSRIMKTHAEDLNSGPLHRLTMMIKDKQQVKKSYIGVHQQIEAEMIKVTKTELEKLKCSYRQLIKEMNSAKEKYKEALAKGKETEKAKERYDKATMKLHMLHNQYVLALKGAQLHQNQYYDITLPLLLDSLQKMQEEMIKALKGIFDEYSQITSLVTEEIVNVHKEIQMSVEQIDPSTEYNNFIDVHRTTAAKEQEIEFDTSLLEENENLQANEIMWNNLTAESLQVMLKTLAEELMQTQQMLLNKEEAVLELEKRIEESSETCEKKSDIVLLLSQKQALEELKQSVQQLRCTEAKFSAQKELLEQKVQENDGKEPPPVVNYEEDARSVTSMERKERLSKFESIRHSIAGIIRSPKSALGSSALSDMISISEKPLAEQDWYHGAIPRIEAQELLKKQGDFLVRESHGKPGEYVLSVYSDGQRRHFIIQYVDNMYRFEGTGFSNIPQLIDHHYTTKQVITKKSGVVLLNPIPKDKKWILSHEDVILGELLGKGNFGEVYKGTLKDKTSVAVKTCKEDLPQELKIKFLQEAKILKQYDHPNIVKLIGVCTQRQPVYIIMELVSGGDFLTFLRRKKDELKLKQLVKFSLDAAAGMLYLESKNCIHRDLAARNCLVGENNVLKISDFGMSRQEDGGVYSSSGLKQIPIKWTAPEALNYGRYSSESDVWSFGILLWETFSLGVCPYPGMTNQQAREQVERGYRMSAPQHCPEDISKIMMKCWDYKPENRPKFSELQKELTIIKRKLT
- assay_name: KINOMEscan competition binding
- condition_label: read-out: %Inh FER
Please mark rule met if the recorded inhibition at 1 µM is equal to or greater than 3%, and rule not met if it falls below.

Solved entries:
CS(=O)(=O)Cc1ccc(Nc2nccc(-c3c(-c4cccc(NC(=O)C5CCCCC5)c4)nn4ncccc34)n2)cc1 [UNC10225159A] :: rule met
Cc1ccc(NC(=O)Nc2cccc(C(F)(F)F)c2)cc1 [UNC10225187A] :: rule not met
COc1cccc(OC)c1C(=O)Nc1cccc(-c2nn3ccccc3c2-c2ccnc(Nc3cccc(F)c3)n2)c1 [UNC10225310A] :: rule met

# next molecule below
State whether the measured inhibition at 1 µM reaches 3%, counting equality as reaching it, for Cn1cc(-c2cnc(N)c3c(-c4ccc5c(c4)CCN5C(=O)Cc4ccccc4)csc23)cn1 [UNC10225012A]
rule met

====

- experimental_system: CDKL3 (Homo sapiens)
- Sequence (Q8IVW4 whole entry): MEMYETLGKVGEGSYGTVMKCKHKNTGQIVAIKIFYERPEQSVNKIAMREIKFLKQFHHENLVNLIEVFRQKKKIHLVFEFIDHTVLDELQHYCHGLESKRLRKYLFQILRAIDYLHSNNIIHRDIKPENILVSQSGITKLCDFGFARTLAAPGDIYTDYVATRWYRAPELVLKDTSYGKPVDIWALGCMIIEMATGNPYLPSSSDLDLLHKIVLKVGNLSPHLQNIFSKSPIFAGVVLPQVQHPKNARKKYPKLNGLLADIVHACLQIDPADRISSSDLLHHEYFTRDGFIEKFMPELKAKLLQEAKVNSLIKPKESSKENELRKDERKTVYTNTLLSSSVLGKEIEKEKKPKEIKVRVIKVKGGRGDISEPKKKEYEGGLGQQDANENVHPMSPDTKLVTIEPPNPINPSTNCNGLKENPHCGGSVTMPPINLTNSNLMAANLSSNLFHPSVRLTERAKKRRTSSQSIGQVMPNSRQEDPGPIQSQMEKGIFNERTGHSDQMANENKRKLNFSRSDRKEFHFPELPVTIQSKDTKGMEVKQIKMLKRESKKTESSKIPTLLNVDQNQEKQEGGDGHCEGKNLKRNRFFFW
- assay_name: KINOMEscan competition binding
- condition_label: read-out: %Inh CDKL3
observation_type: inhibition at 1 µM (%)
Note: unit % is implicit; provide only the numeric part.

Cc1ccc(NC(=O)Nc2cccc(C(F)(F)F)c2)cc1 [UNC10225187A] :: 4
Cn1cc(-c2cnc(N)c3c(-c4ccc5c(c4)CCN5C(=O)Cc4ccccc4)csc23)cn1 [UNC10225012A] :: 4

# inhibition at 1 µM lookup, item COc1cccc(OC)c1C(=O)Nc1cccc(-c2nn3ccccc3c2-c2ccnc(Nc3cccc(F)c3)n2)c1 [UNC10225310A]
3

Try this compound next: O=c1cc(N2CCOCC2)nc2n(Cc3cccc(Cl)c3Cl)c(C3CC3)nn12 [UNC10225469A]
0

Try this compound next: CS(=O)(=O)Cc1ccc(Nc2nccc(-c3c(-c4cccc(NC(=O)C5CCCCC5)c4)nn4ncccc34)n2)cc1 [UNC10225159A]
0

====

- experimental_system: CSF1R (Homo sapiens)
- Sequence (P07333 20-972): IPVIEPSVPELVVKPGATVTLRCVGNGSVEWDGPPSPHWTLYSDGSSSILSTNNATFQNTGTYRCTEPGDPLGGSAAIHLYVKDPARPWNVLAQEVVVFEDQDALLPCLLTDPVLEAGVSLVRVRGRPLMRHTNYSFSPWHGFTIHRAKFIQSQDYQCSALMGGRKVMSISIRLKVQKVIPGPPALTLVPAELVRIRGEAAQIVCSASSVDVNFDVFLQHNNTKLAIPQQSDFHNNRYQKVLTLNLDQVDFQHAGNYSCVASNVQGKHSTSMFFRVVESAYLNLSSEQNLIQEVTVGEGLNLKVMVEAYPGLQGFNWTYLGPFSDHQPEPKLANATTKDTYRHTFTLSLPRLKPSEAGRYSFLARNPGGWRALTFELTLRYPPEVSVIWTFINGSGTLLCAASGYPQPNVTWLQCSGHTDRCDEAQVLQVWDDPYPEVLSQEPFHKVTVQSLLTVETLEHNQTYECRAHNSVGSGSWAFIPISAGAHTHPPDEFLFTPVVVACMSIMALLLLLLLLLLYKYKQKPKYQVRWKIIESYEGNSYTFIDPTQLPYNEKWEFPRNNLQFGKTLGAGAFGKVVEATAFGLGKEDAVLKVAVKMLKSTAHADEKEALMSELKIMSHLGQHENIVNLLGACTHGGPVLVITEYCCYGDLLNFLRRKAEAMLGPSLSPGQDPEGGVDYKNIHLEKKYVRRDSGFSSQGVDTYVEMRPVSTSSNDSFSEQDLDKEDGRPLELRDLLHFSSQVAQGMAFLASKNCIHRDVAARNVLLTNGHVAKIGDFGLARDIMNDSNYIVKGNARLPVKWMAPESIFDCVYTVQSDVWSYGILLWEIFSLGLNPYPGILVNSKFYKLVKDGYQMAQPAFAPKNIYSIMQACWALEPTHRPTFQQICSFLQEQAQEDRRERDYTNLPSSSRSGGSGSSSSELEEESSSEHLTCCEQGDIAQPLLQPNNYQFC
- assay_name: KINOMEscan competition binding
- condition_label: read-out: %Inh CSF1R
observation_type: inhibition at 1 µM (%)
Note: unit % is implicit; provide only the numeric part.

COc1cccc(OC)c1C(=O)Nc1cccc(-c2nn3ccccc3c2-c2ccnc(Nc3cccc(F)c3)n2)c1 [UNC10225310A] :: 60
Cc1ccc(NC(=O)Nc2cccc(C(F)(F)F)c2)cc1 [UNC10225187A] :: 0
O=c1cc(N2CCOCC2)nc2n(Cc3cccc(Cl)c3Cl)c(C3CC3)nn12 [UNC10225469A] :: 0

# inhibition at 1 µM lookup, item CS(=O)(=O)Cc1ccc(Nc2nccc(-c3c(-c4cccc(NC(=O)C5CCCCC5)c4)nn4ncccc34)n2)cc1 [UNC10225159A]
79

Try this compound next: Cn1cc(-c2cnc(N)c3c(-c4ccc5c(c4)CCN5C(=O)Cc4ccccc4)csc23)cn1 [UNC10225012A]
99.9

====

- experimental_system: IRAK3 (Homo sapiens)
- Sequence (Q9Y616 whole entry): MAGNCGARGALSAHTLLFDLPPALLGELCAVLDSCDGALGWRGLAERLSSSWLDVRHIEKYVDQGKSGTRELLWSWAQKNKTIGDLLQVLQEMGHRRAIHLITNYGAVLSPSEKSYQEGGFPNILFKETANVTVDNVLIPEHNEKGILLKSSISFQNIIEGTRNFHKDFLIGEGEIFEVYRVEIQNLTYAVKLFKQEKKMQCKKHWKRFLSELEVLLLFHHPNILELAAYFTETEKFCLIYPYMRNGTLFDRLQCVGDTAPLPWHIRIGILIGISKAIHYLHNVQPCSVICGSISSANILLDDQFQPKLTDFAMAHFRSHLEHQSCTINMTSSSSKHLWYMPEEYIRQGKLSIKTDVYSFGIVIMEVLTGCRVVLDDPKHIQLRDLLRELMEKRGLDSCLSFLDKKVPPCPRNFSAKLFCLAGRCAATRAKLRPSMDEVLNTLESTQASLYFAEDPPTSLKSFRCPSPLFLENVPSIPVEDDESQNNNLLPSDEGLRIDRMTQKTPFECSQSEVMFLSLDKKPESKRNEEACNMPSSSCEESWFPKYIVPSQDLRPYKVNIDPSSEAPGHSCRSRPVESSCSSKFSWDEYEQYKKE
- assay_name: KINOMEscan competition binding
- condition_label: read-out: %Inh IRAK3
Entries and their inhibition at 1 µM
Note: unit % is implicit; provide only the numeric part.

Worked examples, 4 compounds total:
CS(=O)(=O)Cc1ccc(Nc2nccc(-c3c(-c4cccc(NC(=O)C5CCCCC5)c4)nn4ncccc34)n2)cc1 [UNC10225159A] :: 3
COc1cccc(OC)c1C(=O)Nc1cccc(-c2nn3ccccc3c2-c2ccnc(Nc3cccc(F)c3)n2)c1 [UNC10225310A] :: 0
Cc1ccc(NC(=O)Nc2cccc(C(F)(F)F)c2)cc1 [UNC10225187A] :: 100
O=c1cc(N2CCOCC2)nc2n(Cc3cccc(Cl)c3Cl)c(C3CC3)nn12 [UNC10225469A] :: 0

# inhibition at 1 µM lookup, item Cn1cc(-c2cnc(N)c3c(-c4ccc5c(c4)CCN5C(=O)Cc4ccccc4)csc23)cn1 [UNC10225012A]
5

====

- experimental_system: EPHB1 (Homo sapiens)
- Sequence (P54762 18-984): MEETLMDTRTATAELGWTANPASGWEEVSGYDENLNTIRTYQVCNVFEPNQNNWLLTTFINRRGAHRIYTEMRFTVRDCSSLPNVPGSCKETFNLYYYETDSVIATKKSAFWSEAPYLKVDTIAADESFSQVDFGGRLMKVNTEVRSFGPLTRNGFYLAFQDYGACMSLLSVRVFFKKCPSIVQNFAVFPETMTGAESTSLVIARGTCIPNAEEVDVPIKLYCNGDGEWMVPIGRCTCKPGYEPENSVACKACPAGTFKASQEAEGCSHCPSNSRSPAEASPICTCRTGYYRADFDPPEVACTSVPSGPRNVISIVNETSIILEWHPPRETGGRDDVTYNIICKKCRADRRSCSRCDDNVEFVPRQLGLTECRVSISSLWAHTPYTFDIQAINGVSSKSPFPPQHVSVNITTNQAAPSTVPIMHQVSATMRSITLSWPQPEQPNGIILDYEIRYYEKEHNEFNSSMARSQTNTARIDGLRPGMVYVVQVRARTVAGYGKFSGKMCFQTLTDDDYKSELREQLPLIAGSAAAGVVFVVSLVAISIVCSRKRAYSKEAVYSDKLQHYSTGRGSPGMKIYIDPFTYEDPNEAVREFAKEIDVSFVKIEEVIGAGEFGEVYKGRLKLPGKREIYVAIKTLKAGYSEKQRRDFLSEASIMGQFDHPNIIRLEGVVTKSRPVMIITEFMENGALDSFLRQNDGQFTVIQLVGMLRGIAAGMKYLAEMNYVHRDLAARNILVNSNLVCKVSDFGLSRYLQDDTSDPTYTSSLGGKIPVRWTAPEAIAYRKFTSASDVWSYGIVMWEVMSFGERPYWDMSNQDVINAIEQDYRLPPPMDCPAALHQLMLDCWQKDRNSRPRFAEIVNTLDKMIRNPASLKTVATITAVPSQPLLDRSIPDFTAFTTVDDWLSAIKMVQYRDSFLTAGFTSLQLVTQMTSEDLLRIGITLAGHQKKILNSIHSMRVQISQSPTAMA
- assay_name: KINOMEscan competition binding
- condition_label: read-out: %Inh EPHB1
observation_type: inhibition at 1 µM (%)
Note: unit % is implicit; provide only the numeric part.

Worked examples, 4 compounds total:
COc1cccc(OC)c1C(=O)Nc1cccc(-c2nn3ccccc3c2-c2ccnc(Nc3cccc(F)c3)n2)c1 [UNC10225310A] :: 100
O=c1cc(N2CCOCC2)nc2n(Cc3cccc(Cl)c3Cl)c(C3CC3)nn12 [UNC10225469A] :: 0
Cc1ccc(NC(=O)Nc2cccc(C(F)(F)F)c2)cc1 [UNC10225187A] :: 5
Cn1cc(-c2cnc(N)c3c(-c4ccc5c(c4)CCN5C(=O)Cc4ccccc4)csc23)cn1 [UNC10225012A] :: 6

# inhibition at 1 µM lookup, item CS(=O)(=O)Cc1ccc(Nc2nccc(-c3c(-c4cccc(NC(=O)C5CCCCC5)c4)nn4ncccc34)n2)cc1 [UNC10225159A]
2

====

- experimental_system: ARK5 (Homo sapiens, UniProt O60285)
- Sequence (O60285 1-661): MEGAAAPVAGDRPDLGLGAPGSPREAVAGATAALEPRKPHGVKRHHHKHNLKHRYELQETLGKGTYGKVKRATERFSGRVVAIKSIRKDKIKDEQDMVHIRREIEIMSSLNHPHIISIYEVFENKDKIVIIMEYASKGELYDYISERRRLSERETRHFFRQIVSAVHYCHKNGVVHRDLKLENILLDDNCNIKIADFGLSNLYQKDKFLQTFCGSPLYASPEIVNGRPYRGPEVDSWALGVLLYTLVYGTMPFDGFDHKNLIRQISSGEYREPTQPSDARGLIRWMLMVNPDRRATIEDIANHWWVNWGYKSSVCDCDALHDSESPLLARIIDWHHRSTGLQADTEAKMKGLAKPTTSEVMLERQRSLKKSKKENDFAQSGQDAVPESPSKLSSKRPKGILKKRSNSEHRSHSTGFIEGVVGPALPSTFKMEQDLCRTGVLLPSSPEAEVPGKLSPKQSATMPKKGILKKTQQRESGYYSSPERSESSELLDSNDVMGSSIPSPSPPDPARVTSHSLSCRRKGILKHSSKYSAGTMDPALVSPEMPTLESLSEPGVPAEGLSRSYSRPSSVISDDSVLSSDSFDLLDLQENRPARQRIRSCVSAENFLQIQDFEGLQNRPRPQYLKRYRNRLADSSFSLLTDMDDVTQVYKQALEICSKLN
- assay_name: KINOMEscan competition binding
- condition_label: read-out: %Inh ARK5
Entries and their inhibition at 1 µM
Note: unit % is implicit; provide only the numeric part.

Worked examples, 4 compounds total:
COc1cccc(OC)c1C(=O)Nc1cccc(-c2nn3ccccc3c2-c2ccnc(Nc3cccc(F)c3)n2)c1 [UNC10225310A] :: 0
Cc1ccc(NC(=O)Nc2cccc(C(F)(F)F)c2)cc1 [UNC10225187A] :: 0
Cn1cc(-c2cnc(N)c3c(-c4ccc5c(c4)CCN5C(=O)Cc4ccccc4)csc23)cn1 [UNC10225012A] :: 3
CS(=O)(=O)Cc1ccc(Nc2nccc(-c3c(-c4cccc(NC(=O)C5CCCCC5)c4)nn4ncccc34)n2)cc1 [UNC10225159A] :: 0

Request - read-out inhibition at 1 µM | tested on ARK5 (Homo sapiens, UniProt O60285) | compound O=c1cc(N2CCOCC2)nc2n(Cc3cccc(Cl)c3Cl)c(C3CC3)nn12 [UNC10225469A]
0
